From: patent US5334761A

# assayProcedure: % protein (toxicity estimate, Bradford) after transfection
# Type: cell-based, human
# testContext: human, jurkat cells; 30 μg lipid; pSV2CAT; 6 h OPTIMEM
Quick reference: viability at 6 h of the listed items.

[
  {
    "molecule": "CCCCCCCC/C=C\\CCCCCCCCOCC(C[N+](C)(C)CCBr)OCCCCCCCC/C=C\\CCCCCCCC (centres unmarked) [Compound 3]",
    "viability at 6 h, %": 97
  },
  {
    "molecule": "CCCCCCCC/C=C\\CCCCCCCCOCC(C[N+](C)(C)CCNCCCN)OCCCCCCCC/C=C\\CCCCCCCC (centres unmarked) [Compound 4]",
    "viability at 6 h, %": 100
  }
]
